tested system: human recombinant IRAK4 protein (Homo sapiens (Human), UniProt Q9NWZ3)
Sequence (Q9NWZ3 whole entry): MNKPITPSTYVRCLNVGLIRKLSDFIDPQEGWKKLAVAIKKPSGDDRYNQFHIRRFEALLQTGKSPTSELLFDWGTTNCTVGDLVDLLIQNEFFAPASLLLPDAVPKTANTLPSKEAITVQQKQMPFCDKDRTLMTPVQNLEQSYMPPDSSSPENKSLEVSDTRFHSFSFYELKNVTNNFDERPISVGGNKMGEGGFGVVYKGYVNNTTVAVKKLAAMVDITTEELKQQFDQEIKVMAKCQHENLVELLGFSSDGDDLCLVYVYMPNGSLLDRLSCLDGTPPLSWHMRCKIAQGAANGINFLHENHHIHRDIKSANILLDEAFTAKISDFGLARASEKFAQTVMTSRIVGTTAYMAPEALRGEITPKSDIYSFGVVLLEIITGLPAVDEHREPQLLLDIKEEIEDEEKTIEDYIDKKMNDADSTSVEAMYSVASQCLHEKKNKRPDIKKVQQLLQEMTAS
protocol details: IRAK4 enzyme assay (mass spectrometry readout)
experimental setup: 3 mM ATP, 0.2 nM enzyme; geometric mean of at least n=2, * single experiment
pIC50: −log10 of the molar value.
reported metric: pIC50

1 = COc1cc2nn([C@H]3CC[C@@H](O)CC3)cc2cc1C(=O)Nc1cnc2cccnn12 [Example 7]
2 = COc1cc2nn([C@H]3CC[C@H](O)[C@H](C)C3)cc2cc1C(=O)Nc1cnc2cccnn12 (single isomer, unassigned) [Example 78]
Hi there, can you help? I need to know whether 1 or 2 has lower measured pIC50. Choose, then provide that item's label.
1
(1: 8.22, 2: 8.60)

Provenance of the data: patent US11866405B2
